The following binders are listed with their measured EC50 values.
- SYSTEM TESTED: T1, ZIKV E DIII protein (residues 301-403) (Zika virus (strain GZ01))
- T1 chain: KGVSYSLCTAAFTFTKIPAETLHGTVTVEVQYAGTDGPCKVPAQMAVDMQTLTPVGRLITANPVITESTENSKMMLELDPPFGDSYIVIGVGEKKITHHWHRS
- ASSAY REMARKS: ELISA
Provide only the numeric value, understood in ng/mL.

Qu. // returns reported EC50 for input 2H-4 (antibody, V domains shown) VH: QVQLVQSGREVKKPGASVKVSCKGSGYTFTSYDINWVRQAPGQGLEWMGWMNPNSGNTGYAQKFQGRVTMTRNTSISTAYMELSSLRSGDTAVYYCARVSSGSYYGSYYYYYYGMDVWGQGTTVTVSS VL: SYELTQPPSASGTPGQRVTISCSGSSSNIGNNYVHWYQQLPGSAPKLLIYRNNQRPSGVPDRFSGSKSGTSGSLAISGLRSEDEADYYCASWDDSLSGHWVFGGGTKVTVL
Ans. 8.4

Others:
Qu. // returns reported EC50 for input 2L-6 (antibody, V domains shown) VH: EVQLVQSGAEVKKPGASVKVSCKASGYTFTSGHTFPSYDINWVRQATGQGLEWMGWMNPNRGNTGYAQKFQGRVTMTRNTSINTAYMELSSLRSEDTAVYYCARVRSGTNYGSYYYYYYGMDVWGQGTTVTVSS VL: SVLQPQPPSASRHPGQRVTISCLHGSSSNIGNNYVSWYQQLPGTDPKLLIYRNNHAASGVPDRFSGSKSGTSASLAISGLRSEDEADYYCAAWDDSLSGHWVFGGGTKLTVL
Ans. 335

Qu. // returns reported EC50 for input 2H-16 (antibody, V domains shown) VH: QVQLVQSGAEVKKPGASVKVSCKASGYTFTSYDINWVRQATGQGLEWMGWMNPNSGNTGCAQKFQGRVTMTRNTSISTAYMELSSLRSEDTAVYYCARVSSGSYYGSYYYYYYGMDVWGQGTTVTVSS VL: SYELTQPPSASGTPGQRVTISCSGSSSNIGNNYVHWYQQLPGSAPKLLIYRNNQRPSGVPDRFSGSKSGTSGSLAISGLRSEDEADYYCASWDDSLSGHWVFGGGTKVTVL
Ans. 4.1

Qu. // returns reported EC50 for input 2H-6 (antibody, V domains shown) VH: EVQLVQSGAEVKKPGASVKVSCKASGYTFTSYDVNWVRQATGQGLEWMGWLNPNSGNTGYAEKFQGRVTMTRNTSISTAYMELSSLRSEDTAVYYCARVSSGSYYGSYYYYYYGMDVWGQGTTVTVSS VL: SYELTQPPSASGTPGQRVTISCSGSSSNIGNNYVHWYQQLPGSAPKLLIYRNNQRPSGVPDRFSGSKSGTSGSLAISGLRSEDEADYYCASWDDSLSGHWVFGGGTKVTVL
Ans. 3.9
